- assay-system: Gcr1 (UniProt P07261)
- Sequence: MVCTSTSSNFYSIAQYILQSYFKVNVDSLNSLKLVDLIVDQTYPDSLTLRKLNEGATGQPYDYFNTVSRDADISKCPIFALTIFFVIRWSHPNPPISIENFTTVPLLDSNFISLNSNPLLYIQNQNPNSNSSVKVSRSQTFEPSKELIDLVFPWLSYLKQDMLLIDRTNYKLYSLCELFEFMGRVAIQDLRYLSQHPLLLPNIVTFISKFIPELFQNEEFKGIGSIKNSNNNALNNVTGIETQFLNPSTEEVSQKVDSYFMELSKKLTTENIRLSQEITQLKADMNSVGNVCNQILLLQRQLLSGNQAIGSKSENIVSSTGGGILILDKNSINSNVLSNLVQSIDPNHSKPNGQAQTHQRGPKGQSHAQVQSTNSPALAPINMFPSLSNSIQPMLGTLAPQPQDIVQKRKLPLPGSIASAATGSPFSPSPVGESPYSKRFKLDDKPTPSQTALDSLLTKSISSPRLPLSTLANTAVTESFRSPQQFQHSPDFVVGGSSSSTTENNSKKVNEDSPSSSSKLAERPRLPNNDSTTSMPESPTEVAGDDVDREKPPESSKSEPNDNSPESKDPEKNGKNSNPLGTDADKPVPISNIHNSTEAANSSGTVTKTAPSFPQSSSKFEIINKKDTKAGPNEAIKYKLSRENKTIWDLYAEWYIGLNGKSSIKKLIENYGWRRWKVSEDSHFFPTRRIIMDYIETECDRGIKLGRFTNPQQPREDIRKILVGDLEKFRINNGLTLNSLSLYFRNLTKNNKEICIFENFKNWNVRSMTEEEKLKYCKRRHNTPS
- protocol-summary: PBM E-score (8-mer binding enrichment) (E-score (-0.5 to 0.5)); higher = stronger / more preferred TF binding
- test-context: protein concentration: 100 nM; construct: GST-full length
Over roughly 33,000 sequences, “E-score (-0.5 to 0.5)” has its median near -0.011; the highest 2% begin near 0.28. The sample as a whole holds a higher share of the highest values than the screen did.
// classify(record): look up PBM E-score in ranges low: < -0.009; middle: ≥ -0.009 and < 0.1; high: ≥ 0.1

residues: AGCAGCAT
assay-system: Gcr1 (UniProt P07261)
class: middle
//
residues: GAGATTCA
assay-system: Gcr1 (UniProt P07261)
class: low
//
residues: AACAGACC
assay-system: Gcr1 (UniProt P07261)
class: low
//
residues: AAGAGGAG
assay-system: Gcr1 (UniProt P07261)
class: low
//
residues: AAAATAGG
assay-system: Gcr1 (UniProt P07261)
class: high
//
residues: CGAGTAGC
assay-system: Gcr1 (UniProt P07261)
class: low
//
residues: AAGAGGAT
assay-system: Gcr1 (UniProt P07261)
class: middle
//
residues: CAGATTCA
assay-system: Gcr1 (UniProt P07261)
class: low
//
residues: CTAAACGA
assay-system: Gcr1 (UniProt P07261)
class: middle
//
residues: CCGGGGAA
assay-system: Gcr1 (UniProt P07261)
class: middle
//
residues: GACCACTA
assay-system: Gcr1 (UniProt P07261)
class: high
//
residues: AGCAGCTA
assay-system: Gcr1 (UniProt P07261)
class: high
//
residues: CACCACTG
assay-system: Gcr1 (UniProt P07261)
class: high
//
residues: AGATCTGG
assay-system: Gcr1 (UniProt P07261)
class: middle
//
residues: AACCACTA
assay-system: Gcr1 (UniProt P07261)
class: high
//
residues: AGTGGCAA
assay-system: Gcr1 (UniProt P07261)
class: middle
//
residues: GACTGGCA
assay-system: Gcr1 (UniProt P07261)
class: low
//
residues: AGGGGAAC
assay-system: Gcr1 (UniProt P07261)
class: middle
//
residues: AATTGTTA
assay-system: Gcr1 (UniProt P07261)
class: high
//
residues: AAAAGACG
assay-system: Gcr1 (UniProt P07261)
class: high

====

- assay-system: Gcr1 (UniProt P07261)
- Sequence: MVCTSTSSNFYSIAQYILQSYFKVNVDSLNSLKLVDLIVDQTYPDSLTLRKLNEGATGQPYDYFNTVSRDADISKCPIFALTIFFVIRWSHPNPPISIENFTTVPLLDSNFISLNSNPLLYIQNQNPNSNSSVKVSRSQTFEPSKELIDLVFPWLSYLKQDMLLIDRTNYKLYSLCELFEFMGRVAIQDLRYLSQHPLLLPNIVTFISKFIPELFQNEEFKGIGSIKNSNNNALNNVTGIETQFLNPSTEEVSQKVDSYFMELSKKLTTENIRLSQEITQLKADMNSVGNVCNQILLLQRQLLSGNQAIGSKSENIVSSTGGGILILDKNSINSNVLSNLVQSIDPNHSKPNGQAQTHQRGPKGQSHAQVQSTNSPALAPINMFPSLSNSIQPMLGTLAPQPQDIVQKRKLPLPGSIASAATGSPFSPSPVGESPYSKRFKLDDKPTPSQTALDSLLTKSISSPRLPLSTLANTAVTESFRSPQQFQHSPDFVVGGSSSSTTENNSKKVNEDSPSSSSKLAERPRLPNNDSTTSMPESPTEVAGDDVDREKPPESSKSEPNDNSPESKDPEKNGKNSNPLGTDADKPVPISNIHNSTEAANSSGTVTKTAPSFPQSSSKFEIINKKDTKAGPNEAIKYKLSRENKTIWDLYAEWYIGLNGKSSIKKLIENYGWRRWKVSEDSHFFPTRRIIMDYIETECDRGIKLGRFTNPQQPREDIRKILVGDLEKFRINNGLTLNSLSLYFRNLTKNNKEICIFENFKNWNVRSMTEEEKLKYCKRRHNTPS
- protocol-summary: PBM E-score (8-mer binding enrichment) (E-score (-0.5 to 0.5)); higher = stronger / more preferred TF binding
- test-context: protein concentration: 100 nM; construct: GST-full length
Whole data set: some 33,000 sequences, median “E-score (-0.5 to 0.5)” near -0.011, cut for the highest 2% near 0.28. Many of the other results were omitted from the sample, so the highest values are more common in it than they were.
measurement-name: PBM E-score

residues: GTCACCAA
recorded-value: 0.0813
--
residues: GTAATGGA
recorded-value: 0.0927
--
residues: ACGCCATG
recorded-value: -0.0676
--
residues: GGCTCGCA
recorded-value: -0.137
--
residues: CGTATCTC
recorded-value: 0.0698
--
residues: CGCATCTA
recorded-value: 0.204
--
residues: GCTTCAAA
recorded-value: 0.192
--
residues: ACTGCTAT
recorded-value: -0.225

====

- assay-system: Gcr1 (UniProt P07261)
- Sequence: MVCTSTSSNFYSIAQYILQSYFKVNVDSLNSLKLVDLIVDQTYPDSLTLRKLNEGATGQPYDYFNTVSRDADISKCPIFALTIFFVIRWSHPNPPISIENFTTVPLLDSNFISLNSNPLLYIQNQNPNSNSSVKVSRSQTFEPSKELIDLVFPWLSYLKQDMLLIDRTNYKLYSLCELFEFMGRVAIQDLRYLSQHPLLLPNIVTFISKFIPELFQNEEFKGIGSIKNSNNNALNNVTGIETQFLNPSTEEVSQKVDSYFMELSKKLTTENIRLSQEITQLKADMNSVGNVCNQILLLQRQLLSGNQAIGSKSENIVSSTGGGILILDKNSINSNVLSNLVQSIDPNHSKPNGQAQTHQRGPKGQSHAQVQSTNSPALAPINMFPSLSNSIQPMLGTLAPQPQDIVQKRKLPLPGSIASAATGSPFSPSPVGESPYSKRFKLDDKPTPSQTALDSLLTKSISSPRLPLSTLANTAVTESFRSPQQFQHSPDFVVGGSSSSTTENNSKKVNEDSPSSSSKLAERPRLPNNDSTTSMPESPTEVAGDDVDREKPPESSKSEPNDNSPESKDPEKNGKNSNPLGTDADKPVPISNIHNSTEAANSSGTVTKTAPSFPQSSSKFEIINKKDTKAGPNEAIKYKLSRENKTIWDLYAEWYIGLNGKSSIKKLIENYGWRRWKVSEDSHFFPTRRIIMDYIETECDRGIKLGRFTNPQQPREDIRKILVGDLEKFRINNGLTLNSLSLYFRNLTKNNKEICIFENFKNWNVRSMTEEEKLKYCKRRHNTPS
- protocol-summary: PBM E-score (8-mer binding enrichment) (E-score (-0.5 to 0.5)); higher = stronger / more preferred TF binding
- test-context: protein concentration: 100 nM; construct: GST-full length
In all, about 33,000 sequences were measured (“E-score (-0.5 to 0.5)”: median about -0.011, highest 2% from about 0.28 on). This excerpt belongs to a sample that is enriched for the highest values.

residues: TGATATCA
PBM E-score: 0.0841

residues: TAATCCAA
PBM E-score: 0.134

residues: GAATCCAA
PBM E-score: 0.309

residues: GAGTGGAA
PBM E-score: 0.316

residues: GCATCCAC
PBM E-score: 0.452

residues: CCCGTTAG
PBM E-score: 0.0113

residues: GCGGTTCC
PBM E-score: 0.314

residues: TAGTGGCA
PBM E-score: 0.289

residues: AAGAAACC
PBM E-score: 0.0595

residues: GAAGCCCA
PBM E-score: 0.368

residues: AAGTGGCA
PBM E-score: 0.238

residues: AGGAGTCC
PBM E-score: 0.303

residues: GAAGCCCC
PBM E-score: 0.381

residues: ACATCCAC
PBM E-score: 0.133

residues: TCACTGGA
PBM E-score: 0.219

residues: GATTCGCC
PBM E-score: 0.0655

residues: AGGGTTCG
PBM E-score: -0.0648

residues: CGGCCCCC
PBM E-score: 0.0724

residues: TCATCCAA
PBM E-score: -0.114

residues: AGTCTCGC
PBM E-score: -0.154

residues: GTTCATAA
PBM E-score: 0.0771

residues: AGCTTACG
PBM E-score: 0.0302

residues: AGGAGTCA
PBM E-score: -0.0283

residues: AGAAAGGA
PBM E-score: -0.143

residues: AAATCCAA
PBM E-score: 0.142

residues: AAGTGGTC
PBM E-score: 0.0307

residues: GGGTGGAA
PBM E-score: -0.113

residues: GCGGTTCA
PBM E-score: -0.231

residues: CCTCCTGC
PBM E-score: -0.0964

residues: AGGAGTCG
PBM E-score: -0.069

residues: CGGAGTCA
PBM E-score: -0.00995

residues: AGACCGAA
PBM E-score: -0.18

residues: CAAGCCCC
PBM E-score: -0.18

residues: GGAAGGCA
PBM E-score: 0.0904

residues: GATCACCA
PBM E-score: -0.0057

residues: CTCCGGGA
PBM E-score: 0.00075

residues: CCATCCAC
PBM E-score: -0.0219

residues: ATGGGCTC
PBM E-score: 0.102

residues: AAAGCCCA
PBM E-score: -0.0697

residues: ACCGAACG
PBM E-score: 0.0306
